Molecular target: CIB1 and αIIb interaction (CIB1-GST : F-αIIb peptide) (Homo sapiens, UniProt Q99828)
Construct: made in house; host or cells: BL-21 plus RIL cells (E. coli)
Sequence (Q99828 1-191): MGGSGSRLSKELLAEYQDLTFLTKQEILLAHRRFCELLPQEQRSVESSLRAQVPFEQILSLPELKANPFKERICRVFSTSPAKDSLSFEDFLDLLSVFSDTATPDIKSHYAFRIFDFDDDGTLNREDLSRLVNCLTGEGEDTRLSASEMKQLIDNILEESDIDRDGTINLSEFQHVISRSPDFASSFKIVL
Assay: FP assay, 1536-well qHTS format (primary and confirmatory screen)
Type: binding
Settings: confirmatory screen; read-out: CONFIRMATORY SCREEN IC50
Below is a list of entries, each paired with its recorded IC50 value.
Output spec: scalar in µM, unitless text.

# Molecule, Value Unit, IC50
measured = [
    ("COc1cccc(-c2csc(NC(=O)c3ccncc3NS(=O)(=O)c3ccc(C)cc3)n2)c1 [NCGC00319006-02]", "µM", 31.6),
    ("O=c1oc2ccccc2c(O)c1C(CC(O)c1ccc(-c2ccc(Br)cc2)cc1)c1ccccc1 (stereo not shown) [NCGC00163939-02]", "µM", 12.6),
]

Asked: Looking for the measured IC50 of Br.CCCCCCCCCCCCCCCC[N+](C)(C)C.[Br-] [NCGC00164283-07] , can you help?
Given back: 70.8

Asked: Fill in: IC50 of CCc1ccc(/C=C2/SC(=S)NC2=O)cc1 [NCGC00185994-01] is ___
Given back: 8.9
